EXPERIMENT SUMMARY: Inhibition of caspase-like activity of beta1 subunit of 20S proteasome in human erythrocytes using Z-LLE-MCA as substrate preincubated with enzyme for 10 mins followed by substrate addition and measured after 3 hrs by fluorescence spectrophotometeric analysis
pIC50: −log10 of the molar value.
Would you please tag the item 1 when its pIC50 is 5 or above, and 0 when it is below?

Illustrative cases are given below, each with its answer.
{"COMPOUND": "C=C1CC[C@H]2C(C)(C)[C@H](O)CC[C@]2(C)[C@H]1C[C@]12O[C@H]1C(=O)C(COC(=O)[C@H](O)[C@H](C)O)=CC2=O", "LABEL": 1}
{"COMPOUND": "C=C1CC[C@H]2C(C)(C)[C@H](O)CC[C@]2(C)[C@H]1C[C@]12O[C@H]1C(=O)C(CO)=CC2=O", "LABEL": 0}
{"COMPOUND": "C=C1CC[C@H]2C(C)(C)[C@H](O)CC[C@]2(C)[C@H]1C[C@]12O[C@H]1C(=O)C(COC(=O)C[C@H](C)O)=CC2=O", "LABEL": 1}
{"COMPOUND": "C=C1CC[C@H]2C(C)(C)[C@H](O)CC[C@]2(C)[C@H]1C[C@]12O[C@H]1[C@H](O)C(COC(=O)C[C@H](C)O)=CC2=O", "LABEL": 0}
{"COMPOUND": "C=C1CC[C@H]2C(C)(C)[C@H](O)CC[C@]2(C)[C@H]1C[C@]12O[C@H]1[C@H](O)C(COC(=O)[C@H](O)[C@H](C)O)=CC2=O", "LABEL": 0}

Okay, now this compound:
Query block: Reported pIC50 reaches at least 5 for C=C1CC[C@H]2C(C)(C)[C@H](O)CC[C@]2(C)[C@H]1C[C@]12O[C@H]1[C@H](O)C(CO)=CC2=O ?
Result block: 0

The values you see were collected from BindingDB's records for doi:10.1016/j.bmc.2019.115161.
